- SYSTEM UNDER TEST: hROMK (human Kir1.1) (Homo sapiens (Human), UniProt P48048)
- Sequence (P48048 whole entry): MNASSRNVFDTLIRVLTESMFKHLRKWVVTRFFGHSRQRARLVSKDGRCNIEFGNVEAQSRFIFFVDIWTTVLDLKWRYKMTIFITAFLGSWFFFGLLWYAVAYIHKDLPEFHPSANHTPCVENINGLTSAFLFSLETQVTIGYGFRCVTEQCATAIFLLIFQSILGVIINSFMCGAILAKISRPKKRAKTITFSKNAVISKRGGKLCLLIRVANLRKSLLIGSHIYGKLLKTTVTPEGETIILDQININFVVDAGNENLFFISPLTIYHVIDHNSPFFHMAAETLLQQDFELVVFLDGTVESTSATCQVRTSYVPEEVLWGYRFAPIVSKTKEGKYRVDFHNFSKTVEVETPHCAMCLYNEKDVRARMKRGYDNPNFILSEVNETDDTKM
- PROCEDURE DETAILS: Thallium Flux Assay (FluxOR, CHO T-Rex hROMK stable cell line)
- ASSAY SETUP: CHO T-Rex hROMK cells, 10-point concentration response curve; read-out: Human ROMK TH Flux IC50

COMPOUND | IC50 [nM]
Cc1cn(-c2ccc(CNC[C@H](O)c3ccc4c(c3C)COC4=O)cn2)nn1 | 70
Cc1cn(-c2cnc(CNC[C@H](O)c3ccc4c(c3C)COC4=O)cn2)cn1 | 290
CC(=O)N(Cc1ccc(-c2ccc(C#N)c(F)c2)cc1)CC(O)c1ccc2c(c1C)COC2=O (single isomer, unassigned) | 780
Cc1c([C@@H](O)CNCc2ccc(-n3cc(C#N)cn3)nc2)ccc2c1COC2=O | 0.57
CN(Cc1ccc(-c2ccc(C#N)c(F)c2)cc1)Cc1ccc2c(c1)COC2=O | 3300
CN(Cc1ccc(-c2ccc(C#N)c(F)c2)nc1)CC(O)c1ccc2oc(=O)n(C)c2c1 (single isomer, unassigned) [Example 24-II] | 2400
Cc1c([C@@H](O)CNCc2ccc(-n3cnc(C#N)n3)nc2)ccc2c1COC2=O | 26
Cc1c([C@@H](O)CNCc2cnn(-c3cnccn3)c2)ccc2c1COC2=O | 470
Cc1cc(-n2cc(CNC[C@@H](c3ccc4c(c3C)COC4=O)N3CCCS3(=O)=O)cn2)ncc1C#N | 260
COc1cc(-n2ncc3c(CNC[C@H](O)c4ccc5c(c4C)COC5=O)cccc32)ncc1C#N | 78
Cc1c([C@@H](O)CNCc2cnn(-c3ccc4nncn4n3)c2)ccc2c1COC2=O | 530
Cc1cc(-c2cc(CNC[C@H](O)c3ccc4c(c3C)COC4=O)on2)ncc1C#N | 56
Cc1cc(-n2cc(CNC[C@H](O)c3ccc4c(c3C)COC4=O)cn2)nc(C)c1C#N | 22
Cc1cc(-n2cc(CCNC(=O)Cc3ccc4c(c3C)COC4=O)cn2)ncc1C#N | 340

* * *

- SYSTEM UNDER TEST: hERG channels (Homo sapiens (Human), UniProt Q12809)
- Sequence (Q12809 whole entry): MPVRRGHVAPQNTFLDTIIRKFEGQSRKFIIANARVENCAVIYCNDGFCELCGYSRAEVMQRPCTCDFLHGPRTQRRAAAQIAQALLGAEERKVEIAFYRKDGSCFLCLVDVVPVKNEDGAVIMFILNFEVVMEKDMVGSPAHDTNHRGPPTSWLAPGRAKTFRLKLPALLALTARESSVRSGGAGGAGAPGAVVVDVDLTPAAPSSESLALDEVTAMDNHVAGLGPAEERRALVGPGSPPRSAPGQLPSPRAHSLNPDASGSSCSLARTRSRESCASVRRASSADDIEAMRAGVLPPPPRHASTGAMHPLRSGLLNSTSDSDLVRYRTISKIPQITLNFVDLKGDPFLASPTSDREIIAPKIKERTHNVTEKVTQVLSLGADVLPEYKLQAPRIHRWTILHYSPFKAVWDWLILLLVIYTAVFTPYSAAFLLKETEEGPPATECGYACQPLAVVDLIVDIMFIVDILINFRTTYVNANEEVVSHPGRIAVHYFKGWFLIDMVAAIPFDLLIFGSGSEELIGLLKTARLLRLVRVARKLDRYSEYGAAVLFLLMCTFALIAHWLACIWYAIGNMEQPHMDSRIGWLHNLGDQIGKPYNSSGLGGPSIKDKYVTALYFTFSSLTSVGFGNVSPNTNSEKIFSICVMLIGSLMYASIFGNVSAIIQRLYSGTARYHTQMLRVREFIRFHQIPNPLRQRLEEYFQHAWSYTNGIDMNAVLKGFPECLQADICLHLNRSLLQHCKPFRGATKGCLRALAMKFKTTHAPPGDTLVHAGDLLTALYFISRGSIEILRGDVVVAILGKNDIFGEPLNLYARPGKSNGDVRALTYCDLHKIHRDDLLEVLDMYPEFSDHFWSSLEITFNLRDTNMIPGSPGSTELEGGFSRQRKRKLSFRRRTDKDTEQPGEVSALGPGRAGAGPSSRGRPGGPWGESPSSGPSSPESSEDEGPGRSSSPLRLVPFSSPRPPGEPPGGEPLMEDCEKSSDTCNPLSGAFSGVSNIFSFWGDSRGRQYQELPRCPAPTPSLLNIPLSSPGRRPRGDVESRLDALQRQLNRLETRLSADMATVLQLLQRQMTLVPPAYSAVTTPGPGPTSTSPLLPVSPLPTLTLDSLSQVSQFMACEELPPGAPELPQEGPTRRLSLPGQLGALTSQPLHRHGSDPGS
- PROCEDURE DETAILS: hERG Manual Patch Clamp Assay (HEK 293 cells stably expressing hERG channels)
- Type: cell-based
- ASSAY SETUP: human, HEK 293 cells stably expressing hERG channels, pH 7.4

COMPOUND | DISPLAY UNIT | inhibition at 1 µM
COc1cc(-n2cc(CNC[C@H](O)c3ccc4c(c3OC)COC4=O)cn2)ncc1C#N | % | 55
Cc1c([C@@H](O)CNCc2cnc(-n3cc(C#N)c(C(F)(F)F)n3)nc2)ccc2c1COC2=O | % | 13
Cc1c(C(O)CNCc2ccc(-c3ccc(C#N)c(F)c3)cc2)ccc2c1COC2=O (stereo not drawn) | % | 92
Cc1cn(-c2ccc(CNC[C@H](O)c3ccc4c(c3C)COC4=O)cn2)nc1C#N | % | 24
Cc1c([C@@H](O)CNCc2ccc(-n3ccc(C#N)n3)nc2)ccc2c1COC2=O | % | 45
Cc1c([C@@H](O)CN(Cc2ccc(-c3ccc4oc(=O)n(C)c4c3)nc2)CC2CC2)ccc2c1COC2=O | % | 44
CCOC(=O)c1nn(-c2cc(C)c(C#N)cn2)cc1CNC[C@H](O)c1ccc2c(c1C)COC2=O | % | 54
Cc1cc(-n2cc(CNC[C@H](O)c3ccc4c(c3C)COC4=O)n(C)c2=O)ncc1C#N | % | 6.5
Cc1cc(-n2cc(CNC[C@H](O)c3ccc4c(c3C)COC4=O)nn2)nc(C)c1C#N | % | 15
Cc1nn(-c2ncc(CNC[C@H](O)c3ccc4c(c3C)COC4=O)cn2)cc1C#N | % | 3.4
Cc1ncc(-c2ccc(CNC[C@H](O)c3ccc4c(c3C)COC4=O)cn2)s1 | % | 69
Cc1cn(-c2ccc(CNC[C@H](O)c3ccc4c(c3C)COC4=O)cn2)cn1 | % | 7.3
Cc1cc(-n2cc(CNC[C@H](O)c3ccc4c(c3C)COC4=O)c(C)n2)ncc1C#N | % | 32
COc1cc(-c2ncc(CNC[C@H](O)c3ccc4c(c3C)COC4=O)cn2)ncc1C#N | % | 3.8
Cc1c([C@@H](O)CNCc2ccc(-n3cc(C#N)c(C4CC4)n3)nc2)ccc2c1COC2=O | % | 76
Cc1ncn(-c2ncc(CNC[C@H](O)c3ccc4c(c3C)COC4=O)cn2)c1C | % | 3.6
COc1cc(-c2ccc(CNC[C@H](O)c3ccc4c(c3C)COC4=O)c(OC)n2)ncc1C#N | % | 44
Cc1c([C@@H](O)CNCc2cnn(-c3ccc(C#N)cc3)c2)ccc2c1COC2=O | % | 89
Cc1cc(-c2ccc(CN(C)CC(O)c3ccc4c(c3C)COC4=O)cn2)ncc1C#N (single isomer, unassigned) | % | 9.5
Cc1c([C@@H](O)CNCc2cnc(-n3c(C)nnc3C)nc2)ccc2c1COC2=O | % | 9.7
Cc1cc(-n2cnc(CNC[C@H](O)c3ccc4c(c3C)COC4=O)c2)nc(C)c1C#N | % | 17

* * *

- SYSTEM UNDER TEST: hERG channels (Homo sapiens (Human))
- PROCEDURE DETAILS: hERG Manual Patch Clamp Assay (HEK 293 cells stably expressing hERG channels)
- Type: cell-based
- ASSAY SETUP: human, HEK 293 cells stably expressing hERG channels, pH 7.4
Classification by inhibition at 1 µM | ranges: Low = under 20%, Medium = from 20% up to 30%, High = 30% and over

MOLECULE | CLASSIFICATION
Cc1c([C@@H](O)CNCc2cn(-c3ccc4oc(=O)n(C)c4c3)nc2C(F)(F)F)ccc2c1COC2=O [Example 95] | Low
CCc1nn(-c2ncc(CNC[C@H](O)c3ccc4c(c3C)COC4=O)cn2)cc1C#N [Example 114] | Medium
Cc1c([C@@H](O)CNCc2cnc(-n3cc(C#N)c(C4CC4)n3)nc2)ccc2c1COC2=O [Example 117] | High
Cc1c(C(O)CN(C)Cc2ccc(-n3cc(C#N)c4ccccc43)cc2)ccc2c1COC2=O (stereo not shown) [Example 12-I] | High
Cc1cc(-n2cc(CNC[C@H](F)c3ccc4c(c3C)COC4=O)cn2)ncc1C#N [Example 167] | High
CO[C@@H](CNCc1cnn(-c2cc(C)c(C#N)cn2)c1)c1ccc2c(c1C)COC2=O [Example 147] | Medium
Cc1c(C(O)CN(C)Cc2cnc(-c3ccc(C#N)c(F)c3)nc2)ccc2c1COC2=O (stereo not shown) [Example 19-I] | High
Cc1c([C@@H](O)CNC(=O)c2cnc(-c3ccc4oc(=O)n(C)c4c3)s2)ccc2c1COC2=O [Example 136] | Low
Cc1c(C(O)CN(C)Cc2ccc(-c3ccc(C#N)c(F)c3)nc2)ccc2c1COC2=O (single isomer, unassigned) [Example 21-I] | High
Cc1c([C@@H](O)CNCc2cn(-c3ccc4oc(=O)n(C)c4c3)nn2)ccc2c1COC2=O [Example 139] | Low

* * *

Listing of entries alongside the reported pIC50.
- SYSTEM UNDER TEST: hROMK (human Kir1.1) (Homo sapiens (Human))
- PROCEDURE DETAILS: Thallium Flux Assay (FluxOR, CHO T-Rex hROMK stable cell line)
- ASSAY SETUP: CHO T-Rex hROMK cells, 10-point concentration response curve; read-out: Human ROMK TH Flux IC50
pIC50: −log10 of the molar value.
READOUT LABEL: pIC50

COMPOUND | VALUE OBSERVED
Cc1c([C@@H](O)CNCc2cnn(-c3ccc4oc(=O)[nH]c4c3)c2)ccc2c1COC2=O [Example 121] | 6.80
Cc1c([C@@H](O)CNCc2cnn(-c3cc(N4CCCC4)c(C#N)cn3)c2)ccc2c1COC2=O [Example 119] | 7.04
Cc1c([C@@H](O)CNCc2cnn(-c3ccc4c(c3C)COC4=O)c2)ccc2c1COC2=O [Example 75] | 7.19
COc1cc(-n2cnc(C)c2)ncc1CNC[C@H](O)c1ccc2c(c1C)COC2=O [Example 89] | 7.04
Cc1c([C@H](CNCc2cnn(-c3ccc4oc(=O)n(C)c4c3)c2)OC(=O)[C@H](N)C(C)C)ccc2c1COC2=O [Example 44] | 6.85
Cc1c(C(O)CN(C)Cc2ccc(-n3cc(C#N)c4ccccc43)cc2)ccc2c1COC2=O (centres unmarked) [Example 12-I] | 7.11
Cc1c(C(O)CNCc2ccc(-c3ccc(C#N)c(F)c3)cc2)ccc2c1COC2=O (single isomer, unassigned) [Example 10-II] | 6.85
Cc1cn(-c2cc(C)c(CNC[C@H](O)c3ccc4c(c3C)COC4=O)cn2)cn1 [Example 76] | 7.09

* * *

- SYSTEM UNDER TEST: hROMK (human Kir1.1) (Homo sapiens (Human))
- PROCEDURE DETAILS: Thallium Flux Assay (FluxOR, CHO T-Rex hROMK stable cell line)
- ASSAY SETUP: CHO T-Rex hROMK cells, 10-point concentration response curve; read-out: Human ROMK TH Flux IC50
A collection of molecules and their measured IC50
READOUT LABEL: IC50

MOLECULE | VALUE OBSERVED
Cc1c([C@@H](O)CNCc2cnc(-n3cnc(C(F)(F)F)c3)nc2)ccc2c1COC2=O [Example 96] | 62 nM
COCCN[C@@H](CNCc1cnn(-c2cc(C)c(C#N)cn2)c1)c1ccc2c(c1C)COC2=O [Example 57] | 150 nM
Cc1c([C@@H](O)CNCc2cnc(-n3c(C)nnc3C)nc2)ccc2c1COC2=O [Example 47] | 100 nM
Cc1c([C@@H](O)CN(Cc2ccc(-c3ccc4oc(=O)n(C)c4c3)nc2)CC2CC2)ccc2c1COC2=O [Example 162] | 110 nM
